Entries below carry reported IC50 on EGFR (Homo sapiens, UniProt P00533).
Sequence (P00533 25-1210, species assumed): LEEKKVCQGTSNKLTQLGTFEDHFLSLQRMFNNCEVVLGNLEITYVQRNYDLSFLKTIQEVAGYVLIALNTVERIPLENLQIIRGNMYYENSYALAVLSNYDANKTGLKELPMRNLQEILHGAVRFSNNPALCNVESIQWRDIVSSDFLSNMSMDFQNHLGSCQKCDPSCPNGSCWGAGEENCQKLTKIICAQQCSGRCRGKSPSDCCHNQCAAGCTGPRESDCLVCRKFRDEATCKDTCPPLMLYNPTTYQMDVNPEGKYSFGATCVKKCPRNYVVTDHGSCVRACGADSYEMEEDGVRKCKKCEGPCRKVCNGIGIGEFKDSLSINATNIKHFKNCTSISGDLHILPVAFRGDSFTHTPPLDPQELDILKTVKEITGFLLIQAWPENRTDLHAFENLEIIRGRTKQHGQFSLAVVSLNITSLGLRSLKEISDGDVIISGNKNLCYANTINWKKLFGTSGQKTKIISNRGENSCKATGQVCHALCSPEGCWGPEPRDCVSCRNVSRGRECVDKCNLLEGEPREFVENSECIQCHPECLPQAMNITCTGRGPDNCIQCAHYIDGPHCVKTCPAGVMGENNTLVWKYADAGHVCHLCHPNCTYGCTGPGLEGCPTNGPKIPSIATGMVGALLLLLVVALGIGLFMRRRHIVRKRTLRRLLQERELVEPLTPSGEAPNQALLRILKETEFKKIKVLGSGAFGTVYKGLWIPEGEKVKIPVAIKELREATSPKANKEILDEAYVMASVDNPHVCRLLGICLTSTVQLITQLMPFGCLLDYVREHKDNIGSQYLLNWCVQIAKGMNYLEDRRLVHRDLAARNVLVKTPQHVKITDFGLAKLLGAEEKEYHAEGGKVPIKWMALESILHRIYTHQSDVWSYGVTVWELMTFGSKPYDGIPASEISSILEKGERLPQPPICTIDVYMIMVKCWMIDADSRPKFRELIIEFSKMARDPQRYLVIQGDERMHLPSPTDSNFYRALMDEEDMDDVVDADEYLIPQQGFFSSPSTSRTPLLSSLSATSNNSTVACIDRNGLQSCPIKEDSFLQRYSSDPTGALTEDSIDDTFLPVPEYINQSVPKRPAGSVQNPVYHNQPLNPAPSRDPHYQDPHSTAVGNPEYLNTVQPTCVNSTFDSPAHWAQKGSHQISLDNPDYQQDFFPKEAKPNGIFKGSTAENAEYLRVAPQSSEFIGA

Some solved entries appear below for comparison.
Compound	Target Or Test System	Test Readout	Result
CC(C)(C)OC(=O)NC1CCN(C(=O)c2ccc(Nc3ncc(Cl)c(Nc4ccc5ncsc5c4)n3)cc2)CC1 [drawing 309]	EGFR (Homo sapiens, UniProt P00533)	IC50	> 5 µM
NCC1CCN(C(=O)c2cccc(Nc3ncc(Cl)c(Nc4ccc5ncsc5c4)n3)c2)CC1 [drawing 333]	EGFR (Homo sapiens, UniProt P00533)	IC50	> 5 µM
c1cc(Nc2cc(C3CC3)[nH]n2)nc(Nc2ccc(NCc3cc(C4OCCO4)c(C4OCCO4)s3)cc2)n1 [drawing 300]	EGFR (Homo sapiens, UniProt P00533)	IC50	> 50 µM

Then there is this compound:
Given the entry NC1CCN(C(=O)c2cccc(Nc3ncc(Cl)c(Nc4ccc5ncsc5c4)n3)c2)CC1 [drawing 332] , report its measured IC50. > 5 µM
